- testTarget: recombinant OfurPBP1 (Ostrinia furnacalis, UniProt E7CC99)
- Sequence (E7CC99 entry or part of it): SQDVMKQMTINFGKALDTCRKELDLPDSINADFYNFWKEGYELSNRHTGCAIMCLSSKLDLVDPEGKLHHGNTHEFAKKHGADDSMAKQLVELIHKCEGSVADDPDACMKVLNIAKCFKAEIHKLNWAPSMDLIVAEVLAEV
- methodSummary: Competitive fluorescence binding assay with 1-NPN probe, OfurPBP1
- studyConditions: pH 7.4, Ki = [IC50]/(1 + [1-NPN]/K1-NPN), mean ± SE, dash = undetectable interaction
quantityKind: pKi
// pKi is dimensionless: -log10 of concentration (M)

Examples from the recorded data:
> print(dat)
                                   compound                                testtarget  observed
1  C/C=C\CCCCCCCCCCCOC(C)=O [Z12-14:OAc, (Z)-12-Tetradecenyl acetate]  recombinant OfurPBP1 (Ostrinia furnacalis, UniProt E7CC99)      5.37
2  CC/C=C\CCCCCCCCCCOC(C)=O [Z11-14:OAc, (Z)-11-Tetradecenyl acetate]  recombinant OfurPBP1 (Ostrinia furnacalis, UniProt E7CC99)      5.39
3  CC/C=C/CCCCCCCCCCOC(C)=O [E11-14:OAc, (E)-11-Tetradecenyl acetate]  recombinant OfurPBP1 (Ostrinia furnacalis, UniProt E7CC99)      5.34

Now take the following compound into account.
For C/C=C/CCCCCCCCCCCOC(C)=O [E12-14:OAc, (E)-12-Tetradecenyl acetate] , what is its reported pKi? 5.30

// data source = paper PMC5296967
